# compound, logP
data = [
    ("COc1c(O)c(OC)c(OC)c(O)c1OC", 0.39),
    ("CCC1=C(N2CC2)C(=O)C(C)=C(N2CC2)C1=O", 1.35),
    ("CCCOCc1ccccc1NC(=O)OCCN1CCCCC1", 3.34),
    ("CC(=O)S[C@@H]1CC2=CC(=O)CC[C@]2(C)[C@H]2CC[C@@]3(C)[C@@H](CC[C@@]34CCC(=O)O4)[C@H]12", 2.78),
    ("COc1ccccc1C=C(C(C)=O)C(C)=O", 1.73),
    ("CCC(O)CC", 1.21),
    ("CCc1ccco1", 2.4),
    ("CCOC(=O)N(C)C", 0.89),
    ("CCCCSC#N", 2.03),
    ("CC12CCC(=O)C=C1CCC1C2C(O)CC2(C)C1CCC2(O)C(=O)COC(=O)CCCCCC(=O)O (stereo not drawn)", 3.26),
    ("OC(c1ccccc1)(c1cncnc1)c1ccc(Cl)cc1Cl (stereo not drawn)", 2.56),
    ("CCc1cccc(OC(=O)NC)c1", 2.2),
    ("C[Si](C)(C)c1ccccc1", 4.72),
]
